Tested on: KRAS patient-derived spheroids with HUVEC/MSC, viability;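 further: spheroids exposed to agents for seven days before readout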
Experiment: Anticancer human tumor 941728-121-R-J1-PDC patient-derived lung adenocarcinoma cell line growth inhibition [KRAS2]
Conditions: second compound 0.1 µM; first compound 0.1 µM; stronger effect = lower value
measuredEndpoint: viability, T/C (%)
Numbers only, in %.

For orientation, consider the following solved cases.
compound	measureUnit	quantitativeReadout
CC1OCC2(CCN(c3cnc(Sc4ccnc(N)c4Cl)c(N)n3)CC2)C1N (stereo not given) + C=CC(=O)N1CCN(c2nc(OCC3CCCN3C)nc3c2CCN(c2cccc4cccc(C)c24)C3)CC1CC#N	%	28.9
CC(=O)OC12COC1CC(O)C1(C)C(=O)C(O)C3=C(C)C(OC(=O)C(O)C(NC(=O)OC(C)(C)C)c4ccccc4)CC(O)(C(OC(=O)c4ccccc4)C21)C3(C)C (stereo not given) + CC1OCC2(CCN(c3cnc(Sc4ccnc(N)c4Cl)c(N)n3)CC2)C1N	%	33.9
Cn1ncnc1[C@H]1c2n[nH]c(=O)c3cc(F)cc(c23)N[C@@H]1c1ccc(F)cc1 + C=CC(=O)N1CCN(c2nc(=O)n(-c3c(C)ccnc3C(C)C)c3nc(-c4c(O)cccc4F)c(F)cc23)C(C)C1	%	13.9
CN(C)C/C=C/C(=O)Nc1cc2c(Nc3ccc(F)c(Cl)c3)ncnc2cc1O[C@H]1CCOC1 + C=CC(=O)N1CCN(c2nc(OCC3CCCN3C)nc3c2CCN(c2cccc4cccc(C)c24)C3)CC1CC#N	%	18.6
COC(=O)c1ccc2c(C(=Nc3ccc(N(C)C(=O)CN4CCN(C)CC4)cc3)c3ccccc3)c(O)[nH]c2c1 + COc1cc2nc(C)nc(NC(C)c3cc(N)cc(C(F)(F)F)c3)c2cc1OC1CCOC1	%	45.3

// input: 2 compounds below; output: viability, T/C for each
1. CCNC(=O)CC1N=C(c2ccc(Cl)cc2)c2cc(OC)ccc2-n2c(C)nnc21 (stereo not given) + C=CC(=O)N1CCN(c2nc(=O)n(-c3c(C)ccnc3C(C)C)c3nc(-c4c(O)cccc4F)c(F)cc23)C(C)C1
2. O=C(c1cc(Cc2n[nH]c(=O)c3ccccc23)ccc1F)N1CCN(C(=O)C2CC2)CC1 + CNCc1ccccc1-c1csc(C(C)Nc2nc(C)nc3cc(OC)c(OC)cc23)c1

27
65.2

// input: 4 compounds below; output: viability, T/C for each
1. CN(C)C/C=C/C(=O)Nc1cc2c(Nc3ccc(F)c(Cl)c3)ncnc2cc1O[C@H]1CCOC1 + C=CC(=O)N1CCN(c2nc(=O)n(-c3c(C)ccnc3C(C)C)c3nc(-c4c(O)cccc4F)c(F)cc23)C(C)C1
2. CCN1CCN(Cc2ccc(Nc3ncc(F)c(-c4cc(F)c5nc(C)n(C(C)C)c5c4)n3)nc2)CC1 + CNCc1ccccc1-c1csc(C(C)Nc2nc(C)nc3cc(OC)c(OC)cc23)c1
3. CC(C)NCC(C(=O)N1CCN(c2ncnc3c2C(C)CC3O)CC1)c1ccc(Cl)cc1 (stereo not given) + C=CC(=O)N1CCN(c2nc(OCC3CCCN3C)nc3c2CCN(c2cccc4cccc(C)c24)C3)CC1CC#N
4. CCNC(=O)CC1N=C(c2ccc(Cl)cc2)c2cc(OC)ccc2-n2c(C)nnc21 (stereo not given) + CNCc1ccccc1-c1csc(C(C)Nc2nc(C)nc3cc(OC)c(OC)cc23)c1

[14.3, 43.7, 30, 48.9]

// input: 2 compounds below; output: viability, T/C for each
1. O=C(c1cc(Cc2n[nH]c(=O)c3ccccc23)ccc1F)N1CCN(C(=O)C2CC2)CC1 + CC1OCC2(CCN(c3cnc(Sc4ccnc(N)c4Cl)c(N)n3)CC2)C1N
2. CC(C)n1nc(-c2ccc3oc(N)nc3c2)c2c(N)ncnc21 + CC1OCC2(CCN(c3cnc(Sc4ccnc(N)c4Cl)c(N)n3)CC2)C1N

1. 47.7
2. 6.47

// input: 3 compounds below; output: viability, T/C for each
1. CC1(C)CCC(CN2CCN(c3ccc(C(=O)NS(=O)(=O)c4ccc(NCC5CCOCC5)c([N+](=O)[O-])c4)c(Oc4cnc5[nH]ccc5c4)c3)CC2)=C(c2ccc(Cl)cc2)C1 + COc1cc2nc(C)nc(NC(C)c3cc(N)cc(C(F)(F)F)c3)c2cc1OC1CCOC1
2. CCN1CCN(Cc2ccc(Nc3ncc(F)c(-c4cc(F)c5nc(C)n(C(C)C)c5c4)n3)nc2)CC1 + CC1OCC2(CCN(c3cnc(Sc4ccnc(N)c4Cl)c(N)n3)CC2)C1N
3. CCN1CCN(Cc2ccc(Nc3ncc(F)c(-c4cc(F)c5nc(C)n(C(C)C)c5c4)n3)nc2)CC1 + C=CC(=O)N1CCN(c2nc(OCC3CCCN3C)nc3c2CCN(c2cccc4cccc(C)c24)C3)CC1CC#N

1. 40.6
2. 35.9
3. 20.8
